The reader will find reported IC50 values listed item by item below.
- measured_on: recombinant human DPP-1 (Cathepsin C) (Homo sapiens, UniProt P53634)
- Sequence (P53634 25-463): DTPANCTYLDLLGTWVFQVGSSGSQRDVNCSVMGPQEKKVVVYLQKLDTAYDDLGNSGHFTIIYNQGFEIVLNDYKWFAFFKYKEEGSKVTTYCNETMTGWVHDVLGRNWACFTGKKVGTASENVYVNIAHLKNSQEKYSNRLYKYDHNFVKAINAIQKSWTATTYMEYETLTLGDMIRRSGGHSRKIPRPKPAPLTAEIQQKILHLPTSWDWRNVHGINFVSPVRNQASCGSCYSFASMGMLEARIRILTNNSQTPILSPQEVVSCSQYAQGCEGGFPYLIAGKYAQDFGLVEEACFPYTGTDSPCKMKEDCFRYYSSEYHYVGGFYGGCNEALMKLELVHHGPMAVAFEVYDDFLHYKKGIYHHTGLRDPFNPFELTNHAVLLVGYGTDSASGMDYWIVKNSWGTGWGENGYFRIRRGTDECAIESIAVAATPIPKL
- test_description: DPP-1 Inhibition Assay (In Vitro)
- condition_notes: fluorogenic substrate GR-AMC 10 uM, 0.15 nM DPP-1, pH 7.0, room temperature; average value where tested multiple times
Counter-ions that a name gives are not always drawn.

compound: CC[C@H](N)C(=O)NCCNc1nc2ccccc2s1 [Compound 41, hydrochloride]
value_unit: nM
IC50: 18000
--
compound: COc1ccc(NC(=O)c2ccc3nc(N4CCN(C(=O)[C@@H](N)Cc5ccco5)CC4)sc3c2)cc1OC [Compound 6]
value_unit: nM
IC50: 2100
--
compound: CCCCNC(=O)c1ccc2nc(N3CCN(C(=O)[C@@H](N)Cc4cccs4)CC3)sc2c1 [Compound 24]
value_unit: nM
IC50: 820
--
compound: COc1ccc(NC(=O)c2ccc3nc(N4CCN(C(=O)[C@@H](N)Cc5cccs5)CC4)sc3c2)cc1OC [Compound 3, hydrochloride]
value_unit: nM
IC50: 170
